tested on: UO-31 renal; test: NCI-60 one-dose screen, 48 h; conditions: 10 µM unless noted
Compounds without any hit were thinned out: in the full panel of roughly 83,000, 20% have a hit. Active and inactive are the calls of the source. How the source made its calls: active means growth percent below 10; inactive means the rest.
Hi! Could you answer with just one of these? active, inactive

Solved entries (count: 6):
| COMPOUND | CLASS NAME |
| --- | --- |
| CCn1cc2c(cc1=O)-c1nc3ccccc3c3ccnc(c13)C2=O | inactive |
| O=C(/C=C/c1ccc(B(O)O)cc1)/C=C/c1ccc(B(O)O)cc1 | active |
| OC(c1cc(-c2ccccc2)nc2ccc(Cl)cc12)C1CCCCN1 (stereo unspecified) | inactive |
| NCCN1CCN(c2nccc(-c3ccc4ccccc4c3)n2)CC1 | inactive |
| Cc1cc(Nc2nc(-c3cccnc3)nc3ccccc23)n[nH]1 | inactive |
| COc1ccc(OCC(=O)Nc2ccc(-c3nc4ccccc4s3)cc2C)cc1 | inactive |

Lookup: So what was the verdict on `COc1cc2c(cc1O)CCc1cc(O)cc(OC)c1-2` in this test?
Found: inactive

Lookup: Called result for `CC[C@H](Nc1nc(N)nc(C)c1C#N)c1nc2cccc(NCc3ccc(C(=O)NO)cc3)c2c(=O)n1-c1ccccc1`
Found: active

Lookup: # outcome recorded in this test, key = `CSc1nc2sc3c(c2c(=O)n1-c1ccc(C(C)C)cc1)CCC(=O)C3`
Found: active

Lookup: How was `O=c1c2cccc3c(Nc4c(F)cccc4F)ccc(c32)c2nc3ccccc3n12` classified in this test?
Found: inactive

Lookup: Give the logged outcome of this assay for the following compound: `CCOC(=O)c1c2c(n3ccc(NC(=O)CCN4CCCCC4)cc13)C(=O)c1ncccc1C2=O`
Found: inactive

Lookup: What call does the record list for `O=C(Nc1nc(-c2ccccc2)cc(-c2ccc(Cl)cc2)n1)c1ccncc1` ?
Found: inactive

Lookup: Hi, do you know how `CC(=O)C1=C(O)C=C2Oc3c(C(=O)/C=C/c4cc(C(F)(F)F)cc(C(F)(F)F)c4)c(O)c(C)c(O)c3[C@]2(C)C1=O` came out in this test?
Found: active
